Cited source for all entries: patent US20250270180A1

# TEST NAME: Absorption & efflux: Caco-2 permeability
# ASSAY CONDITIONS: human
A collection of compounds and their measured efflux ratio at 2 h, 10 μM

- COMPOUND: "CNS(=O)(=O)Nc1cccc(Cc2c(CNc3ccn[nH]3)c3ccc(OC(=O)N(C)C)cc3oc2=O)c1F [Compound 12]"
  efflux ratio at 2 h, 10 μM: 16.9
- COMPOUND: "CNS(=O)(=O)Nc1cccc(Cc2c(CNCC#N)c3ccc(OC(=O)N(C)C)cc3oc2=O)c1F [Compound 13]"
  efflux ratio at 2 h, 10 μM: 5.57
- COMPOUND: "C#CCNCc1c(Cc2cccc(NS(=O)(=O)NC)c2F)c(=O)oc2cc(OC(=O)N(C)C)ccc12 [Compound 14]"
  efflux ratio at 2 h, 10 μM: 2.8
- COMPOUND: "CNS(=O)(=O)Nc1cccc(Cc2c(CN3CCN(C)CC3)c3ccc(OC(=O)N(C)C)cc3oc2=O)c1F [Compound 15]"
  efflux ratio at 2 h, 10 μM: 29.3
- COMPOUND: "CNS(=O)(=O)Nc1cccc(Cc2c(CN3CCN(Cc4ccccc4)CC3)c3ccc(OC(=O)N(C)C)cc3oc2=O)c1F [Compound 16]"
  efflux ratio at 2 h, 10 μM: 0.743
- COMPOUND: "CNS(=O)(=O)Nc1cccc(Cc2c(CNC3CC3)c3ccc(OC(=O)N(C)C)cc3oc2=O)c1F [Compound 11]"
  efflux ratio at 2 h, 10 μM: 2.15
- COMPOUND: "CNS(=O)(=O)Nc1cccc(Cc2c(CN3CCNCC3)c3ccc(OC(=O)N(C)C)cc3oc2=O)c1F [Compound 10]"
  efflux ratio at 2 h, 10 μM: 56.3
- COMPOUND: "CNS(=O)(=O)Nc1cccc(Cc2c(CN(C)C)c3ccc(OC(=O)N(C)C)cc3oc2=O)c1F [Compound 9]"
  efflux ratio at 2 h, 10 μM: 1.62
